Origin of the recorded values: patent US20180162928A1

# SYSTEM UNDER TEST: human serum albumin (human) (UniProt P02768)
# Sequence (P02768 25-609 limits assumed): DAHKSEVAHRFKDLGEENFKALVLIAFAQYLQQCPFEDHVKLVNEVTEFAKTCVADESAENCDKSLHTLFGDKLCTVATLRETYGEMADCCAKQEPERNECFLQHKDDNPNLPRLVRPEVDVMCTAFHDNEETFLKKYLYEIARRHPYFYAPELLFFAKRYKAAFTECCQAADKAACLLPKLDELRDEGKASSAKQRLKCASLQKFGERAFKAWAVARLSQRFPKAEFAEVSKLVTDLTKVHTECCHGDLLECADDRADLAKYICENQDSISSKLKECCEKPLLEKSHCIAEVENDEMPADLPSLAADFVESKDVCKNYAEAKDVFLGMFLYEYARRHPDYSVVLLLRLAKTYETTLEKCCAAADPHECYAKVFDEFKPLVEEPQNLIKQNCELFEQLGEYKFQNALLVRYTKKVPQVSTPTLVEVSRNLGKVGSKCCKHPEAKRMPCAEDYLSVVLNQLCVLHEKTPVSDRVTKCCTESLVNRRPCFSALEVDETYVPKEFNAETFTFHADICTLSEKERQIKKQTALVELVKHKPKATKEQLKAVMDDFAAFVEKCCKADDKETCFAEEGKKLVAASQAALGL
# ASSAY TEXT: ELISA, lysate on plate-bound antigen
PROPERTY NAME: ELISA HSA (RSU)

1. ISOP194GR9P1F9 (designed binder, not shown: small tags and cut ends, FN3 domain; E. coli lysate in the ELISA) LPAPKNLVVSRVTEDSARLSWTAPDAAFDSFWIFYNERWQNGEAIRLIVPGSERSYDLTGLKPGTEYSVIIPGVKGGRNSFPLWAWFTT :: 800
2. ISOP194ER9P1E6 (designed binder, not shown: small tags and cut ends, FN3 domain; E. coli lysate in the ELISA) LPAPKNLVVSRVTEDSARLSWTAPDAAFDSFWIKYYEKRNPGEAIVLTVPGSERSYDLTGLKPGTEYLVIISGVKGGSRSVPLSAIFTT :: 720
3. ISOP121BR5P1B7 (designed binder, not shown: small tags and cut ends, FN3 domain; E. coli lysate in the ELISA) LPAPKNLVVSRITEDSARLSWKWEEGFFDSFLIQYQESEKVGEAIVLTVPGSERSYDLTGLKPGTEYTVSIYGVYQRHASAFVSNPLSAIFTT :: 480
4. ISOP121AR5P1G6 (designed binder, not shown: small tags and cut ends, FN3 domain; E. coli lysate in the ELISA) LPAPKNLVVSRVTEDSARLSWHATFGDPFDSFLIQYQESEKVGEAIVLTVPGSERSYDLTGLKPGTEYTVSIYGVGRHYTVYDSNPLSAIFTT :: 880
